Experiment: yeast display, Sf9 membrane polyspecificity reagent, FACS + sequencing; frameworks hold sequencing errors

[
  {
    "SEQ": "QVQLVESGGGLVQAGGSLRLSCAASGRTFQNNAMGWYRQAPGKERELVAAISWRGTSTYYADSVKGRFTISRDNANNTVYLQMNSLKPEDTAVYYCAAYPKYGFEFKYGYWGQGTQVTVSS",
    "polyreactivity (PSR sort gate)": "high polyreactivity"
  },
  {
    "SEQ": "QVQLVESGGVLVQAGGSLRLSCAASGLTFKWYAMGWYRQAPGKERELVAAITKSGGTTYADSVKGRFTISRDNAKNTVYLQMNSLKPEDTAVYYCAARYWRLWNTVRYEGDFSDGYWGQGTQVTVSS",
    "polyreactivity (PSR sort gate)": "high polyreactivity"
  },
  {
    "SEQ": "QVLLQESGGGLVQAGGSLRLGCAASGTISPAYYMGRYHHAPGKEREFVAAITYGTNTYYADSVKGRFTISRDNAKNTVNLQMNSLKPADTAVYYCSATAGYNGAHDYWGQGTQVTVSS",
    "polyreactivity (PSR sort gate)": "low polyreactivity"
  },
  {
    "SEQ": "QVQLVESGGGLVQAGGSLRLSCAASGFTSWYDMGWYRQAPGKEMELVAAISSGGSTNYADSVKGRFTISRDNAKNTVYLEMNSLKPEDTAVYYCNAECYETGVPYFGFYYWGQGTQVTVSS",
    "polyreactivity (PSR sort gate)": "low polyreactivity"
  },
  {
    "SEQ": "QVQLVESGGGLVQAGGSLRLSCAASGFTFGLYAMGWYRQAPGKERELVAVISSSGGSTYYADSVKGRFTISRDNAKNTVYLQMNSLTPEDTAVYYCAKDFEAGDDYFAYDYWGQGTQVTVSS",
    "polyreactivity (PSR sort gate)": "low polyreactivity"
  }
]

* * *

Assay: yeast display, Sf9 membrane polyspecificity reagent, FACS + sequencing; frameworks hold sequencing errors
PROPERTY_LABEL: polyreactivity (PSR sort gate)

[
  {
    "SEQ": "QVQLVESGGGLVQAGGSLRLSCAASGSIFTYYAMGWYRQAPGKERELVAAISWSGGSTYYADSVKGRFTISRDNAKNTVYLQMNSLKPEDTAVYYCAAGRFYKWSRYQEYDYWGQGTQVTVSS",
    "DATA_VALUE": "low polyreactivity"
  },
  {
    "SEQ": "QVQLVESGGGLVQAGGSLRLSCAASGYTFYVYAMGCYRQAPGKERELVASITSSTSTKYADSVKGRFTISRDNANNTVYLQMNSLKPEDTAVYYCAADSRVPEYRSPKNDYWGQGTQVTVSS",
    "DATA_VALUE": "low polyreactivity"
  },
  {
    "SEQ": "QVQLVESGGGLVQARGSLRLSCAASGRTFAIYAMGWYRPAPGKEREFVAAISWSGGDTYYADSVKGRFTISRDNAKNTVYLQMNSLKPEDTAVYYCAARDNDYEGRDLQYELDYWGQGSQVTVSS",
    "DATA_VALUE": "low polyreactivity"
  }
]

* * *

Assay: yeast display, Sf9 membrane polyspecificity reagent, FACS + sequencing; frameworks hold sequencing errors
PROPERTY_LABEL: polyreactivity (PSR sort gate)

[
  {
    "SEQ": "QVQLVESGGGLVQAGCSLRLSCAASGLTFAKYAMGWYRHAPGKEWELVAAISRSGGSTYYADSVKGRFTISRDNAKNTVYLQMNSLKPEDTAVYYCAKSSGTLWITKYDYWGQGTQVTVSS",
    "PROPERTY_LABEL": "polyreactivity (PSR sort gate)",
    "DATA_VALUE": "low polyreactivity"
  },
  {
    "SEQ": "QVQLEESGGGLVQAGGSLRLSCAASGFIFDYYAMGWYRQAPGKERELVAAISSSGGSTYADSVKGRFTISRDNAKNTVYLQMNSLKPEDTAVYYCAADWYKRPPYDYWGQGTQVTVSS",
    "PROPERTY_LABEL": "polyreactivity (PSR sort gate)",
    "DATA_VALUE": "low polyreactivity"
  }
]
